- Tested on: SRPK1
- CONDITION: concentration: 1 μM, replicates: in singlicate; n = 1;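 note: KINOMEscan kinase panel screen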
OBSERVATION_TYPE: %Inh
Answer by giving the amount and then stating its unit.

Example entries begin here.
Briefly, %Inh measured for COc1cc(OC)cc(-c2cc3cnc(N)nc3nc2NC(=O)NC(C)(C)C)c1 : 47%

Given item CCC(=O)c1c(-c2ccccc2)c2cc(Cl)ccc2c(=O)n1Cc1cc(C(=O)NC2CC2)n(C)n1 , the value recorded as its %Inh is 0%

Data point: COC(=O)c1c(-c2ccccc2)c2cc(Br)ccc2c(=O)n1Cc1ccc(NC(=O)CCC(=O)O)cc1 ; %Inh = 0%

Kindly consider the entry below.
Just so you know, measured %Inh for COC(=O)c1c(-c2ccccc2)c2cc(Br)ccc2c(=O)n1Cc1ccc(S(C)(=O)=O)cc1 came out at 0%

----------
- System: LATS1
- CONDITION: concentration: 1 μM, replicates: in singlicate; n = 1
OBSERVATION_TYPE: %Inh
Remember to follow the number with its unit.

Completed entries (count: 4):
The compound COc1cc2ncn(-c3cc(OCc4ccncc4Br)c(C(N)=O)s3)c2cc1OC [GW854278] on LATS1: %Inh was 22%

GET /values?item= CCc1ccc(-c2ccc3c(c2)-c2nn(C)cc2S(=O)(=O)N3C)cc1 &system= LATS1 returns %Inh: 0%

Simply: COc1cc2nccc(Nc3cccc(Oc4ccccc4)c3)c2cc1OC.Cl [GW284543] , LATS1, %Inh = 10%

Simply: CCC(=O)c1c(-c2ccccc2)c2cc(Cl)ccc2c(=O)n1Cc1cc(C(=O)NC2CC2)n(C)n1 , LATS1, %Inh = 19%

Next:
Fill in: LATS1 %Inh for CCC(=O)c1c(-c2ccccc2)c2cc(Cl)ccc2c(=O)n1Cc1cc(S(C)(=O)=O)n(CCC(C)(C)O)n1 = 31%

----------
Reported values of %Inh for individual entries
- Tested on: CSNK1D
- CONDITION: concentration: 1 μM, replicates: in singlicate; n = 1
Response body: numeric value in %, unit text excluded.

Example entries and their recorded answers appear below.
The observed %Inh for O=C(NCc1cccs1)c1cc(C(=O)c2c(Cl)cccc2Cl)c[nH]1 [GW823670] when tested with CSNK1D stands at 0

Value (%Inh, CSNK1D) for record O=C(Nc1ccc2c(c1)OCO2)NC1CCN(c2ccnc(NCc3ccc(F)cc3)n2)CC1 [GSK1379859] = 0

Nc1n[nH]c2ncc(-c3ccccc3)cc12 [SB-517081] tested on CSNK1D gave %Inh: 30

The measured %Inh that CC(C)(C)c1ccc(C(=O)Nc2cn3cc(-c4ccccc4)ccc3n2)cc1 showed for CSNK1D is 0

Param item: COc1cccc(C2=C(Nc3cccc(C(=O)O)c3)C(=O)NC2=O)c1 [SB-390770] ; param system: CSNK1D; output %Inh: 0

---
Item: CCC(=O)c1c(-c2ccccc2)c2cc(Cl)ccc2c(=O)n1Cc1cc(S(C)(=O)=O)n(CC(N)=O)n1 | System: CSNK1D | %Inh: 0

Record for COc1ccc(-c2coc3ccc(-c4nnc(SCc5cccc(C#N)c5)o4)cc23)cc1 under target or system CSNK1D: %Inh reported as 0

Considering Cn1c(=O)c(F)c(Nc2ccc(I)cc2F)c2c(=O)n(OC[C@H](O)CO)cnc21 , its %Inh with CSNK1D was recorded as 12

Item: O=C(NCCNc1ccnc(Nc2ccc(F)cc2)n1)Nc1ccc2c(c1)OCO2 [GSK1379882] | System: CSNK1D | %Inh: 2

Record CCc1nc(-c2cccc(C)c2)c(-c2ccncc2)s1 ; system CSNK1D; %Inh = 68

Log: CSNK1D, molecule O=c1cc(N2CCOCC2)nc2n(Cc3ccc(F)c(Cl)c3)ccn12 [GSK2297099] , %Inh = 9

The molecule COc1cc(Nc2nccc(N3CCC(NC(=O)C4COc5ccccc5O4)C3)n2)cc(OC)c1OC (stereo not drawn) [GSK1379761] , when measured on CSNK1D, yielded %Inh of 0

Reported %Inh (CSNK1D) for entry COC(=O)c1c(-c2ccccc2)c2cc(Br)ccc2c(=O)n1Cc1ccc(NC(=O)CCC(=O)O)cc1 is 0

// %Inh (CSNK1D) for COc1cc2ncn(-c3cc(OCc4ccncc4Br)c(C(N)=O)s3)c2cc1OC [GW854278] = 8

Noted %Inh for CCCC(=O)Nc1n[nH]c2ncc(-c3cccc4ccccc34)cc12 [SB-642057] , tested on CSNK1D: 37

Query COc1cccc(-n2cnc3c(N)ncnc32)c1 [SKF-97416] on CSNK1D; %Inh returned: 12

With CSNK1D as the test system, Nc1n[nH]c2nnc(-c3ccccc3)c(-c3ccccc3)c12 [GW554060] showed %Inh of 0

----------
The compounds listed here are annotated with their %Inh.
- Test system: ASK2
- Construct: gene MAP3K6
- CONDITION: concentration: 1 μM, replicates: in singlicate; n = 1
Quick reminder: number only, in %, skip the unit.

// recorded %Inh for CCn1c(-c2ccoc2)nc2cnccc21 [SB-733887] : 5

Further cases:
Measured %Inh, COc1ccc(-c2coc3ccc(-c4nnc(SCc5cccc(C#N)c5)o4)cc23)cc1 : 6

----------
- Tested on: SGK3
- CONDITION: concentration: 1 μM, replicates: in singlicate; n = 1
Hi! Could you tag entries with %Inh below 9% as Met, and those at or above as Not met? Much appreciated.

Some entries whose results are on file:
QUERY: Please indicate whether the reported %Inh of CCC(=O)c1c(-c2ccccc2)c2cc(Cl)ccc2c(=O)n1Cc1ccc(C(=O)O)cc1 is strictly below 9%.
RESULT: Met

QUERY: Regarding CCCNC(=O)Nc1ccc(Oc2ncnc3ccn(C)c23)cc1 , kindly confirm whether its %Inh is beneath 9%.
RESULT: Met

Others:
QUERY: Hello, is %Inh of the following molecule strictly smaller than 9%? Cc1nc(N(C)[C@H]2CN(C(=O)CC#N)CC[C@H]2C)c2cc[nH]c2n1
RESULT: Met

QUERY: Is %Inh strictly under 9% for the entry COc1ccc(CNC(=O)NC2CCN(c3ccnc(Nc4ccc(F)cc4)n3)C2)cc1 (stereo not shown) [GSK1379706] ?
RESULT: Met

QUERY: Is %Inh of COc1cc(Nc2ccnc3ccc(C(F)(F)F)cc23)cc(OC)c1OC [GW577382] strictly below 9%?
RESULT: Met

QUERY: Strictly below 9% in %Inh? Cc1ccccc1COc1cc(-n2cnc3cc(Cl)ccc32)sc1C(N)=O [GW813349]
RESULT: Met

QUERY: Answer whether the molecule Cc1nn2c(=O)cc(N3CCOCC3)nc2n1Cc1cccc(Cl)c1Cl [GSK2342769] has %Inh strictly less than 9%
RESULT: Met

QUERY: Confirm or reject: %Inh of O=C1NC(=O)C(c2ccccc2)=C1Nc1cccc(O)c1 [SB-390534] lies strictly below 9%
RESULT: Not met

QUERY: Lab log: compare recorded %Inh with 9%; is it strictly lower for COc1ccc(-n2cnc3c(N)ncnc32)cc1 [SKF-97236] ?
RESULT: Not met

QUERY: Report whether reported %Inh is lower than 9% (strictly) for O=C(NCc1cccs1)c1cc(C(=O)c2c(Cl)cccc2Cl)c[nH]1 [GW823670]
RESULT: Met

QUERY: Does this molecule meet the criterion %Inh < 9%? Cc1cccc(-c2nc(Nc3ccc4c(cnn4C)c3)c3ccccc3n2)n1 [GW876731]
RESULT: Met

QUERY: Lab note: confirm whether the reported %Inh for this molecule is below 9%, equality not counting. molecule: CCC(=O)c1c(-c2ccccc2)c2cc(Cl)ccc2c(=O)n1Cc1cc(C(=O)NC2CC2)n(C)n1
RESULT: Not met

QUERY: API: query returns whether the molecule falls strictly under 9% in %Inh. Query: O=C(NCCNc1ccnc(Nc2ccc(F)cc2)n1)Nc1ccc2c(c1)OCO2 [GSK1379882]
RESULT: Met

QUERY: Record CN1C(=O)C(Nc2ccccc2)=C(c2ccccc2)C1=O [SB-300079] : is its %Inh strictly below 9%?
RESULT: Not met

QUERY: Is %Inh strictly under 9% for the entry COc1cc2nccc(Nc3ccc(OCc4ccc(NC(C)=O)cc4)cc3)c2cc1OC.Cl [GW440135] ?
RESULT: Met

QUERY: Does the reported %Inh of CCC(=O)c1c(-c2ccccc2)c2cc(Cl)ccc2c(=O)n1Cc1cc(S(C)(=O)=O)n(CCC(C)(C)O)n1 stay below 9%?
RESULT: Met

QUERY: hey, is %Inh for CCCC(=O)Nc1n[nH]c2ncc(-c3cccc4ccccc34)cc12 [SB-642057] lower than 9% or not?
RESULT: Not met

QUERY: Could you please tell me whether %Inh recorded for CCn1c(-c2nonc2N)nc2ccccc21 [SB-693162/GW549034] is less than 9%?
RESULT: Not met
